Target: GST-Rok-C97-191 (Bacillus subtilis subsp. subtilis str. …, UniProt O34857 97-191)
Sequence: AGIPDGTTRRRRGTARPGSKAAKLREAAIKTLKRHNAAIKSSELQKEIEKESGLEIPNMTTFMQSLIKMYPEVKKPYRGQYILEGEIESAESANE
Assay: protein binding microarray; high values mean tight binding
Conditions: protein: recombinant; tags: GST (pTH5325, pDEST15-Magic modified); dsDNA, one strand shown
Over roughly 33,000 sequences, “e-score” has its median near -0.038; the highest 2% begin near 0.33. The entries come from a sample that favours the highest values as a whole.
Label MET when binding signal is at or above 0.3 E-score; otherwise label NOT MET.

Past entries and their recorded results:
Does AATACTGT have a reported binding signal of at least 0.3 E-score?
NOT MET

Does AATACTCG have a reported binding signal of at least 0.3 E-score?
NOT MET

Does CACATCTA have a reported binding signal of at least 0.3 E-score?
NOT MET

Does TACATGTA have a reported binding signal of at least 0.3 E-score?
MET

Does CACATGTA have a reported binding signal of at least 0.3 E-score?
NOT MET

# ---- query sequence ----
Does ATACTACC have a reported binding signal of at least 0.3 E-score?
MET

---

Molecular target: GST-Rok-C97-191 (Bacillus subtilis subsp. subtilis str. …, UniProt O34857 97-191)
Sequence: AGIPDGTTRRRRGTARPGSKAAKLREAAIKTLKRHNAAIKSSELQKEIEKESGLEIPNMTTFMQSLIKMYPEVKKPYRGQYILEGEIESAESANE
Test: protein binding microarray; high values mean tight binding
Conditions: protein: recombinant; tags: GST (pTH5325, pDEST15-Magic modified); dsDNA, one strand shown
Over roughly 33,000 sequences, “e-score” has its median near -0.038; the highest 2% begin near 0.33. The sample as a whole holds a higher share of the highest values than the screen did.
Label YES when binding signal is at or above 0.3 E-score; otherwise label NO.

Does AACTAGAC have a reported binding signal of at least 0.3 E-score?
NO

Does TCCGAGCA have a reported binding signal of at least 0.3 E-score?
NO

Does ACTAGCAT have a reported binding signal of at least 0.3 E-score?
NO

Does ATATAGAA have a reported binding signal of at least 0.3 E-score?
YES

Does AACTAGAT have a reported binding signal of at least 0.3 E-score?
YES

Further cases:
Does ATACATAA have a reported binding signal of at least 0.3 E-score?
NO

Does GTAGTAGA have a reported binding signal of at least 0.3 E-score?
YES

Does AATCTACA have a reported binding signal of at least 0.3 E-score?
YES

Does GTAATTGA have a reported binding signal of at least 0.3 E-score?
NO

Does ACTATTAG have a reported binding signal of at least 0.3 E-score?
NO

Does ATAATTTG have a reported binding signal of at least 0.3 E-score?
YES

Does ACAGTAGT have a reported binding signal of at least 0.3 E-score?
NO

Does TCATTCCA have a reported binding signal of at least 0.3 E-score?
NO

---

Biological target: GST-Rok-C97-191 (Bacillus subtilis subsp. subtilis str. …, UniProt O34857 97-191)
Sequence: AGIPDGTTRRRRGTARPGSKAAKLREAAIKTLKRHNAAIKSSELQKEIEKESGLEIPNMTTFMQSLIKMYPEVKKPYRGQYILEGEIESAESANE
Assay: protein binding microarray; high values mean tight binding
Conditions: protein: recombinant; tags: GST (pTH5325, pDEST15-Magic modified); dsDNA, one strand shown
Whole data set: some 33,000 sequences, median “e-score” near -0.038, cut for the highest 2% near 0.33. For the sample, the highest values were picked, then their nearest neighbours and some sequences at random.
Labelling: binding signal reported below 0.07 E-score becomes label 1; at or above becomes label 0.

Consider CCATAGCA . Does its binding signal lie strictly below 0.07 E-score?
label 1

Consider ATGAATCA . Does its binding signal lie strictly below 0.07 E-score?
label 1

Consider ATATATGG . Does its binding signal lie strictly below 0.07 E-score?
label 0

Consider ATCTCTAC . Does its binding signal lie strictly below 0.07 E-score?
label 0

Consider CCTTCTGC . Does its binding signal lie strictly below 0.07 E-score?
label 1

---

Target: GST-Rok-C97-191 (Bacillus subtilis subsp. subtilis str. …, UniProt O34857 97-191)
Sequence: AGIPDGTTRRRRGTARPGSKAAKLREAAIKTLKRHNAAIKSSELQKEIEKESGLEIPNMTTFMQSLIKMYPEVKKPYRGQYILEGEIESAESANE
Test: protein binding microarray; high values mean tight binding
Conditions: protein: recombinant; tags: GST (pTH5325, pDEST15-Magic modified); dsDNA, one strand shown
In all, about 33,000 sequences were measured (“e-score”: median about -0.038, highest 2% from about 0.33 on). Many of the other results were omitted from the sample, so the highest values are more common in it than they were.
binding signal values by entry
Number in E-score, nothing else.

Tested on GST-Rok-C97-191 (Bacillus subtilis subsp. subtilis str. …, UniProt O34857 97-191), the item ACGACCGT showed binding signal equal to 0.00992

Tested on GST-Rok-C97-191 (Bacillus subtilis subsp. subtilis str. …, UniProt O34857 97-191), the item ATACTGCA showed binding signal equal to 0.287

Tested on GST-Rok-C97-191 (Bacillus subtilis subsp. subtilis str. …, UniProt O34857 97-191), the item AAATTACC showed binding signal equal to 0.365

Tested on GST-Rok-C97-191 (Bacillus subtilis subsp. subtilis str. …, UniProt O34857 97-191), the item TCTGGGAA showed binding signal equal to 0.0446

Tested on GST-Rok-C97-191 (Bacillus subtilis subsp. subtilis str. …, UniProt O34857 97-191), the item AAATACGG showed binding signal equal to 0.213

---

binding signal values by entry
Target: GST-Rok-C97-191 (Bacillus subtilis subsp. subtilis str. …, UniProt O34857 97-191)
Sequence: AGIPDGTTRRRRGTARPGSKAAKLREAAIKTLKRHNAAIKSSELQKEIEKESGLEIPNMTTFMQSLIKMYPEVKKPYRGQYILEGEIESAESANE
Assay: protein binding microarray; high values mean tight binding
Settings: protein: recombinant; tags: GST (pTH5325, pDEST15-Magic modified); dsDNA, one strand shown
The full ranking holds about 33,000 sequences; the median of “e-score” is about -0.038, and the highest 2% start at about 0.33. The list comes from a sample in which the highest values are over-represented; it also holds close analogues and randomly drawn sequences.
Number in E-score, nothing else.

Use the examples below as a reference point.
CAAGCCTG yielded binding signal of -0.132

ATAATACA yielded binding signal of 0.242

ATAATACC yielded binding signal of 0.197

GGTATATA yielded binding signal of 0.406

GTAGCTAC yielded binding signal of 0.428

Further cases:
ACACAACT yielded binding signal of 0.0324

GGTATAAA yielded binding signal of 0.352

---

Molecular target: GST-Rok-C97-191 (Bacillus subtilis subsp. subtilis str. …, UniProt O34857 97-191)
Sequence: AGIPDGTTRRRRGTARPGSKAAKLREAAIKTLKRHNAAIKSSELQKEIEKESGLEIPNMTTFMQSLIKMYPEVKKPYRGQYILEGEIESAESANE
Assay: protein binding microarray; Rok is a gene silencer of Bacillus subtilis; high values mean tight binding
Conditions: protein: recombinant; tags: GST (pTH5325, pDEST15-Magic modified); dsDNA, one strand shown
Whole data set: some 33,000 sequences, median “e-score” near -0.038, cut for the highest 2% near 0.33. Many of the other results were omitted from the sample, so the highest values are more common in it than they were.
binding signal values by entry

CAGCAATA yielded binding signal of 0.203 E-score

GAAAGACA yielded binding signal of -0.0886 E-score

ACTACCAT yielded binding signal of 0.353 E-score

ACTACCAA yielded binding signal of 0.257 E-score

CTCGCTCA yielded binding signal of -0.0517 E-score

CAGGTCTC yielded binding signal of -0.144 E-score

GGAATGGA yielded binding signal of -0.114 E-score

GCGTCCAA yielded binding signal of -0.0249 E-score

Further cases:
GAATATTA yielded binding signal of 0.2 E-score

ACTACCCG yielded binding signal of 0.0272 E-score

ACTACCCA yielded binding signal of 0.332 E-score

GCTACCAC yielded binding signal of 0.0411 E-score

ATTTAGTG yielded binding signal of 0.0465 E-score

AATTAGTG yielded binding signal of 0.28 E-score

AACACATG yielded binding signal of 0.0194 E-score

ATGCGCGG yielded binding signal of -0.168 E-score

AACGTCGC yielded binding signal of 0.0434 E-score
